target: UniProtKB P0DTD1; assay: Inhibition of SARS-Cov-2 RdRp expressed in HEK293T cells co-transfected with pCoV-Gluc and pCOVID-nsp12/7/8 at 10 uM incubated for 24 hrs by microplate luminometric analysis relative to control; type: cell-based
Assignment: determine reported inhibition for the given compounds.
Answers without a unit are incomplete; give the number and then its unit.

Inquiry: // lookup inhibition | system=UniProtKB P0DTD1 | key= `Cc1ccccc1CNC(=O)CSc1[nH]c2ccccc2c1SCC(=O)Nc1ccc(Cl)c(Cl)c1`
Reply text: 94.4%

Inquiry: // lookup inhibition | system=UniProtKB P0DTD1 | key= `O=C(CSc1[nH]c2ccccc2c1SCC(=O)Nc1ccc(Cl)c(Cl)c1)NCc1ccc(Cl)c(Cl)c1`
Reply text: 89.1%

Inquiry: // lookup inhibition | system=UniProtKB P0DTD1 | key= `CCOc1ccccc1NC(=O)CSc1c(SCC(=O)NCc2ccccc2Cl)[nH]c2ccccc12`
Reply text: 80.8%

Inquiry: // lookup inhibition | system=UniProtKB P0DTD1 | key= `O=C(CSc1[nH]c2ccccc2c1SCC(=O)Nc1ccc(Cl)c(Cl)c1)NCc1ccc(Cl)cc1`
Reply text: 96.6%

Inquiry: // lookup inhibition | system=UniProtKB P0DTD1 | key= `CCOc1ccccc1NC(=O)CSc1c(SCC(=O)NCc2ccccc2OC)[nH]c2ccccc12`
Reply text: 73.8%

Inquiry: // lookup inhibition | system=UniProtKB P0DTD1 | key= `CCOc1ccccc1NC(=O)CSc1c(SCC(=O)NCc2ccc(C)cc2)[nH]c2ccccc12`
Reply text: 88.3%

Inquiry: // lookup inhibition | system=UniProtKB P0DTD1 | key= `CCOc1ccccc1NC(=O)CSc1c(SCC(=O)NCc2ccc(Cl)cc2)[nH]c2ccccc12`
Reply text: 95.4%

Inquiry: // lookup inhibition | system=UniProtKB P0DTD1 | key= `Cc1cccc(CNC(=O)CSc2[nH]c3ccccc3c2SCC(=O)Nc2ccc(Cl)c(Cl)c2)c1`
Reply text: 96%

Inquiry: // lookup inhibition | system=UniProtKB P0DTD1 | key= `O=C(CSc1c[nH]c2ccccc12)Nc1ccc(Cl)c(Cl)c1`
Reply text: 36%

Inquiry: // lookup inhibition | system=UniProtKB P0DTD1 | key= `O=C(CSc1[nH]c2ccccc2c1SCC(=O)Nc1ccc(Cl)c(Cl)c1)Nc1ccc(Cl)c(Cl)c1`
Reply text: 88.1%

Inquiry: // lookup inhibition | system=UniProtKB P0DTD1 | key= `CCOc1ccccc1NC(=O)CSc1c(SCC(=O)NCc2ccccc2F)[nH]c2ccccc12`
Reply text: 89.5%

----------
biological target: Replicase polyprotein 1ab (Severe acute respiratory syndrome coronavirus 2); test: Inhibition of SARS-Cov-2 RdRp expressed in HEK293T cells co-transfected with pCoV-Gluc and pCOVID-nsp12/7/8 at 10 uM incubated for 24 hrs by microplate luminometric analysis relative to control; type: cell-based
Assignment: determine reported inhibition for the given molecules.
Form entry: value (%) — number only.

Inquiry: // lookup inhibition | system=Replicase polyprotein 1ab (Severe acute respiratory syndrome coronavirus 2) | key= `CCOc1ccccc1CNC(=O)CSc1[nH]c2ccccc2c1SCC(=O)Nc1ccccc1OCC`
Reply text: 39.2

Inquiry: // lookup inhibition | system=Replicase polyprotein 1ab (Severe acute respiratory syndrome coronavirus 2) | key= `O=C(CSc1[nH]c2ccccc2c1SCC(=O)Nc1ccc(Cl)c(Cl)c1)NCc1ccccc1F`
Reply text: 93.6

Inquiry: // lookup inhibition | system=Replicase polyprotein 1ab (Severe acute respiratory syndrome coronavirus 2) | key= `CCOc1ccccc1NC(=O)CSc1[nH]c2ccccc2c1SCC(=O)Nc1ccccc1OCC`
Reply text: 48.5

Inquiry: // lookup inhibition | system=Replicase polyprotein 1ab (Severe acute respiratory syndrome coronavirus 2) | key= `Cc1ccc(CNC(=O)CSc2[nH]c3ccccc3c2SCC(=O)Nc2ccc(Cl)c(Cl)c2)cc1`
Reply text: 91.9

Inquiry: // lookup inhibition | system=Replicase polyprotein 1ab (Severe acute respiratory syndrome coronavirus 2) | key= `O=C(CSc1[nH]c2ccccc2c1SCC(=O)Nc1ccc(Cl)c(Cl)c1)NCc1ccc(-c2ccccc2)cc1`
Reply text: 93.8

Inquiry: // lookup inhibition | system=Replicase polyprotein 1ab (Severe acute respiratory syndrome coronavirus 2) | key= `CCOc1ccccc1NC(=O)CSc1c(SCC(=O)NCc2ccccc2C)[nH]c2ccccc12`
Reply text: 77.5

Inquiry: // lookup inhibition | system=Replicase polyprotein 1ab (Severe acute respiratory syndrome coronavirus 2) | key= `CCOc1ccccc1NC(=O)CSc1c(SCC(=O)NCc2ccc(Cl)c(Cl)c2)[nH]c2ccccc12`
Reply text: 84.8

Inquiry: // lookup inhibition | system=Replicase polyprotein 1ab (Severe acute respiratory syndrome coronavirus 2) | key= `O=C(CSc1[nH]c2ccccc2c1SCC(=O)Nc1ccc(Cl)c(Cl)c1)NCc1ccccc1Cl`
Reply text: 82

Inquiry: // lookup inhibition | system=Replicase polyprotein 1ab (Severe acute respiratory syndrome coronavirus 2) | key= `CCC(CC)COC(=O)[C@H](C)N[P@](=O)(OC[C@H]1O[C@@](C#N)(c2ccc3c(N)ncnn23)[C@H](O)[C@@H]1O)Oc1ccccc1`
Reply text: 87

Inquiry: // lookup inhibition | system=Replicase polyprotein 1ab (Severe acute respiratory syndrome coronavirus 2) | key= `COc1ccccc1CNC(=O)CSc1[nH]c2ccccc2c1SCC(=O)Nc1ccc(Cl)c(Cl)c1`
Reply text: 95.5

Inquiry: // lookup inhibition | system=Replicase polyprotein 1ab (Severe acute respiratory syndrome coronavirus 2) | key= `CCOc1ccccc1NC(=O)CSc1c(SCC(=O)NCc2cccc(C)c2)[nH]c2ccccc12`
Reply text: 40.2

Inquiry: // lookup inhibition | system=Replicase polyprotein 1ab (Severe acute respiratory syndrome coronavirus 2) | key= `CCOc1ccccc1NC(=O)CSc1c(SCC(=O)NCc2cccc(Cl)c2)[nH]c2ccccc12`
Reply text: 94.8

Inquiry: // lookup inhibition | system=Replicase polyprotein 1ab (Severe acute respiratory syndrome coronavirus 2) | key= `CCOc1ccccc1NC(=O)CSc1c(SCC(=O)NCc2ccc(-c3ccccc3)cc2)[nH]c2ccccc12`
Reply text: 39.7

Inquiry: // lookup inhibition | system=Replicase polyprotein 1ab (Severe acute respiratory syndrome coronavirus 2) | key= `CCOc1ccccc1CNC(=O)CSc1[nH]c2ccccc2c1SCC(=O)Nc1ccc(Cl)c(Cl)c1`
Reply text: 92

Inquiry: // lookup inhibition | system=Replicase polyprotein 1ab (Severe acute respiratory syndrome coronavirus 2) | key= `CCOc1ccccc1NC(=O)CSc1c[nH]c2ccccc12`
Reply text: 4

Inquiry: // lookup inhibition | system=Replicase polyprotein 1ab (Severe acute respiratory syndrome coronavirus 2) | key= `CCOc1ccccc1NC(=O)CSc1c(SCC(=O)NCc2ccccc2)[nH]c2ccccc12`
Reply text: 89.2

Inquiry: // lookup inhibition | system=Replicase polyprotein 1ab (Severe acute respiratory syndrome coronavirus 2) | key= `O=C(CSc1[nH]c2ccccc2c1SCC(=O)Nc1ccc(Cl)c(Cl)c1)NCc1ccccc1`
Reply text: 97

Inquiry: // lookup inhibition | system=Replicase polyprotein 1ab (Severe acute respiratory syndrome coronavirus 2) | key= `O=C(CSc1[nH]c2ccccc2c1SCC(=O)Nc1ccc(Cl)c(Cl)c1)NCc1cccc(Cl)c1`
Reply text: 85.1
